Values compiled from ChEMBL document CHEMBL5576155.

- Procedure Summary: Cytotoxicity against mouse J774.2 cells assessed as reduction in cell viability by MTT assay
- Assay type: toxicity, cell-based
Measurement Kind: CC50

>>> observed("Cc1ccc(NC(=O)c2c(C)[n+]([O-])c3ccc(C(=O)OCC(C)C)cc3[n+]2[O-])c(C)c1")
"> 200 µM"
>>> observed("CCCCOC(=O)c1ccc2c(c1)[n+]([O-])c(C(=O)c1ccccc1)c(C(F)(F)F)[n+]2[O-]")
"48.4 µM"
>>> observed("CC(C)COC(=O)c1ccc2c(c1)[n+]([O-])c(C(=O)c1ccco1)c(C(F)(F)F)[n+]2[O-]")
"81.8 µM"
>>> observed("Cc1c(C(=O)Nc2ccccc2)[n+]([O-])c2cc(C(=O)OCC(C)C)ccc2[n+]1[O-]")
"> 200 µM"
>>> observed("CC(C)COC(=O)c1ccc2c(c1)[n+]([O-])c(C(=O)Nc1ccccc1)c(-c1ccccc1)[n+]2[O-]")
"> 200 µM"
>>> observed("Cc1c(C(=O)c2ccccc2)[n+]([O-])c2cc(C(=O)OCC(C)C)ccc2[n+]1[O-]")
"34.2 µM"
>>> observed("CCCCOC(=O)c1ccc2c(c1)[n+]([O-])c(C(=O)OC(C)(C)C)c(C)[n+]2[O-]")
"> 200 µM"
>>> observed("CC(=O)c1c(C)[n+]([O-])c2ccc(C(=O)OCC(C)C)cc2[n+]1[O-]")
"87.2 µM"
>>> observed("CCCCOC(=O)c1ccc2c(c1)[n+]([O-])c(C(=O)OCC)c(C(F)(F)F)[n+]2[O-]")
"> 200 µM"
>>> observed("CC(=O)c1c(C(F)(F)F)[n+]([O-])c2ccc(C(=O)OCC(C)C)cc2[n+]1[O-]")
"25.4 µM"
>>> observed("CCCCOC(=O)c1ccc2c(c1)[n+]([O-])c(C(=O)OCC)c(C)[n+]2[O-]")
"> 200 µM"
>>> observed("Cc1ccc(NC(=O)c2c(C)[n+]([O-])c3cc(C(=O)OCC(C)C)ccc3[n+]2[O-])c(C)c1")
"> 200 µM"
>>> observed("CCCCOC(=O)c1ccc2c(c1)[n+]([O-])c(C(=O)OCc1ccccc1)c(C)[n+]2[O-]")
"> 200 µM"

* * *

- System: Mycobacterium tuberculosis
- Procedure Summary: Antitubercular activity against Mycobacterium tuberculosis H37Rv assessed as reduction in microbial growth incubated for 10 days under anaerobic condition followed by 28 hrs incubation with aerobic condition further incubated 7 days at 5 % CO2 condition by low-oxygen recovery assay
- Type: functional
- Experimental Setup: time 436 hrs
Measurement Kind: MIC (µM)

>>> observed("CCCCOC(=O)c1ccc2c(c1)[n+]([O-])c(C(C)=O)c(C)[n+]2[O-]")
2.3
>>> observed("CCCCOC(=O)c1ccc2c(c1)[n+]([O-])c(C(=O)OC(C)(C)C)c(C)[n+]2[O-]")
128
>>> observed("CC(C)COC(=O)c1ccc2c(c1)[n+]([O-])c(C(=O)Nc1ccccc1)c(-c1ccccc1)[n+]2[O-]")
1.49
>>> observed("CC(C)COC(=O)c1ccc2c(c1)[n+]([O-])c(C(=O)c1ccc3ccccc3c1)c(C(F)(F)F)[n+]2[O-]")
2.33
>>> observed("Cc1c(C(=O)c2ccccc2)[n+]([O-])c2cc(C(=O)OCC(C)C)ccc2[n+]1[O-]")
2.68
>>> observed("Cc1c(C(=O)Nc2ccccc2)[n+]([O-])c2cc(C(=O)OCC(C)C)ccc2[n+]1[O-]")
2.73
>>> observed("CC(=O)c1c(C(F)(F)F)[n+]([O-])c2ccc(C(=O)OCC(C)C)cc2[n+]1[O-]")
0.94
>>> observed("CC(C)COC(=O)c1ccc2c(c1)[n+]([O-])c(C(=O)c1ccco1)c(C(F)(F)F)[n+]2[O-]")
1.65
>>> observed("CCCCOC(=O)c1ccc2c(c1)[n+]([O-])c(C(=O)OCC)c(C(F)(F)F)[n+]2[O-]")
0.87
>>> observed("CCCCOC(=O)c1ccc2c(c1)[n+]([O-])c(C(=O)c1ccccc1)c(C)[n+]2[O-]")
5.37
>>> observed("CCCCOC(=O)c1ccc2c(c1)[n+]([O-])c(C(=O)c1cccs1)c(C(F)(F)F)[n+]2[O-]")
0.86
>>> observed("CC(C)OC(=O)c1ccc2c(c1)[n+]([O-])c(C(=O)c1cccs1)c(C(F)(F)F)[n+]2[O-]")
0.54
>>> observed("CCOC(=O)c1ccc2c(c1)[n+]([O-])c(C(=O)c1cccs1)c(C(F)(F)F)[n+]2[O-]")
0.51
>>> observed("CCCCOC(=O)c1ccc2c(c1)[n+]([O-])c(C(C)=O)c(C(F)(F)F)[n+]2[O-]")
0.97
>>> observed("CCCCOC(=O)c1ccc2c(c1)[n+]([O-])c(C(=O)OC)c(C)[n+]2[O-]")
5.24
